- System: SEM cells
- assay_notes: cell viability relative to DMSO control; higher = less cytotoxic
- setup_conditions: RPMI 5 mM glucose + 10% dialyzed FBS; 48 h; 46.1 µM
measurement_type: cell viability

Query block: Please tell me: cell viability of "CC(C)[C@]12O[C@H]1[C@@H]3O[C@@]34[C@@]5(C)CC\C6=C(COC6=O)/[C@@H]5C[C@@H]7O[C@]47[C@@H]2O" , system SEM cells?
Result block: 2.21%

Query block: Please tell me: cell viability of "C[C@@H]1CC[C@@]2(CC[C@]3(C)\C(=C/C[C@@H]4[C@@]5(C)C[C@@H](O)[C@H](O)[C@@](C)(CO)[C@@H]5CC[C@@]34C)[C@@H]2[C@H]1C)C(O)=O" , system SEM cells?
Result block: 127%

Query block: Please tell me: cell viability of "Nc1ncnc2nc(-c3ccc(N4CCOCC4)nc3)cc(-c3cccc(Br)c3)c12" , system SEM cells?
Result block: 93%

Query block: Please tell me: cell viability of "CC(=O)N(O)CCCCCNC(=O)CCC(=O)N(O)CCCCCNC(=O)CCC(=O)N(O)CCCCCN.C[S+](=O)([O-])O" , system SEM cells?
Result block: 23.7%

Query block: Please tell me: cell viability of "CC[C@H](C)C(=O)O[C@H]1C[C@@H](C)\C=C2\C=C/[C@H](C)[C@H](CC[C@@H]3C[C@@H](O)CC(=O)O3)[C@@H]12" , system SEM cells?
Result block: 61.1%

Query block: Please tell me: cell viability of "COc1cc(N2CCC(N3CCN(C)CC3)CC2)ccc1Nc1ncc(Cl)c(Nc2ccccc2[S+](=O)([O-])C(C)C)n1" , system SEM cells?
Result block: 11.9%

Query block: Please tell me: cell viability of "COc1cccc(N(C)C(=S)Oc2ccc3c(c2)CCCC3)n1" , system SEM cells?
Result block: 84.6%

* * *

- Tested on: P12-Ichikawa
- assay_notes: AUC of viability dose-response curve (% viability x log10 dose units); higher = less sensitive
- setup_conditions: RPMI 5 mM glucose + 10% FBS; 48 h
So I've got a bunch of compounds here, and I need their AUC of viability dose-response curve values.
// return a plain number; no unit text

Query block: Dear colleague, I am looking for the recorded AUC of viability dose-response curve of the following compound: "CC[C@H]1OC(=O)[C@H](C)[C@@H](O[C@H]2C[C@@](C)(OC)[C@@H](O)[C@H](C)O2)[C@H](C)[C@@H](O[C@@H]2O[C@H](C)C[C@H](N(C)C)[C@H]2O)[C@](C)(O)C[C@@H](C)/C(=N\OCOCCOC)[C@H](C)[C@@H](O)[C@]1(C)O"
Result block: 390

Query block: Dear colleague, I am looking for the recorded AUC of viability dose-response curve of the following compound: C#CCC(Cc1cnc2nc(N)nc(N)c2n1)c1ccc(C(=O)N[C@@H](CCC(=O)O)C(=O)O)cc1 (stereo partly specified)
Result block: 250

Query block: Dear colleague, I am looking for the recorded AUC of viability dose-response curve of the following compound: "CC[C@H](C)C(=O)O[C@H]1C[C@@H](C)\C=C2\C=C/[C@H](C)[C@H](CC[C@@H]3C[C@@H](O)CC(=O)O3)[C@@H]12"
Result block: 373

Query block: Dear colleague, I am looking for the recorded AUC of viability dose-response curve of the following compound: "F\C1=C\NC(=O)NC1=O"
Result block: 435

Query block: Dear colleague, I am looking for the recorded AUC of viability dose-response curve of the following compound: Clc1ccc(C(c2ccc(Cl)cc2)[n+]2ccn(CC(OCc3ccc(Cl)cc3Cl)c3ccc(Cl)cc3Cl)c2)cc1 (stereo unspecified)
Result block: 432

Query block: Dear colleague, I am looking for the recorded AUC of viability dose-response curve of the following compound: OC1CCC(CC1)N2\C=N/C3=C(C2=N)C(=C([N]3CC4=CC=CC=C4)C5=CC=CC=C5)C6=CC=CC=C6 (stereo unspecified)
Result block: 395

Query block: Dear colleague, I am looking for the recorded AUC of viability dose-response curve of the following compound: "Nc1ncnc2nc(-c3ccc(N4CCOCC4)nc3)cc(-c3cccc(Br)c3)c12"
Result block: 439

Query block: Dear colleague, I am looking for the recorded AUC of viability dose-response curve of the following compound: CC(O)(C[S+](=O)([O-])c1ccc(F)cc1)C(=O)Nc1ccc(C#N)c(C(F)(F)F)c1 (stereo unspecified)
Result block: 430

Query block: Dear colleague, I am looking for the recorded AUC of viability dose-response curve of the following compound: "C/C1=C/C(=C(/CNC(=O)C2=CC(=CC3=C2C=N[N]3C4CCCC4)C5=CC=C(CN6CCOCC6)C=C5)C(=O)N1)C"
Result block: 462

Query block: Dear colleague, I am looking for the recorded AUC of viability dose-response curve of the following compound: "Cc1noc(N[S+](=O)([O-])c2ccc(N)cc2)c1C"
Result block: 468

Query block: Dear colleague, I am looking for the recorded AUC of viability dose-response curve of the following compound: "N#Cc1c(N(CC(=O)[O-])CC(=O)[O-])sc(C(=O)[O-])c1CC(=O)[O-].O.O.O.O.O.O.O.[Sr+2].[Sr+2]"
Result block: 458

Query block: Dear colleague, I am looking for the recorded AUC of viability dose-response curve of the following compound: "NC(=O)N1CCC(CC(=O)N2CCC([C@H]3c4ncc(Br)cc4CCc4cc(Cl)cc(Br)c43)CC2)CC1"
Result block: 395

Query block: Dear colleague, I am looking for the recorded AUC of viability dose-response curve of the following compound: "CC1=CC/2=C(C=C1C)N(C[C@@H](O)[C@@H](O)[C@@H](O)CO)C/3=N/C(=O)NC(=O)C3=N2"
Result block: 449

Query block: Dear colleague, I am looking for the recorded AUC of viability dose-response curve of the following compound: "Cc1nnc(C(C)C)n1[C@@H]1C[C@H]2CC[C@@H](C1)N2CC[C@H](NC(=O)C1CCC(F)(F)CC1)c1ccccc1"
Result block: 454

Query block: Dear colleague, I am looking for the recorded AUC of viability dose-response curve of the following compound: "C[S+](=O)([O-])N1CCN(Cc2cc3nc(-c4cccc5[nH]ncc45)nc(N4CCOCC4)c3s2)CC1"
Result block: 420

Query block: Dear colleague, I am looking for the recorded AUC of viability dose-response curve of the following compound: "COc1ccc(-n2c(C)c([N+](=O)[O-])c3ccc(O)cc32)cc1"
Result block: 465

Query block: Dear colleague, I am looking for the recorded AUC of viability dose-response curve of the following compound: "Nc1cc(N2CCCCC2)nc(N)[n+]1[O-]"
Result block: 468

Query block: Dear colleague, I am looking for the recorded AUC of viability dose-response curve of the following compound: "CCC(=O)O[C@@]1(CC[C@H]2[C@@H]3CCC/4=C/C(=O)CC[C@]4(C)[C@H]3CC[C@]12C)C(=O)CO"
Result block: 452

Query block: Dear colleague, I am looking for the recorded AUC of viability dose-response curve of the following compound: "C[S+](=O)([O-])OCCCCO[S+](C)(=O)[O-]"
Result block: 438

Query block: Dear colleague, I am looking for the recorded AUC of viability dose-response curve of the following compound: "O=C(Nc1ccccc1)Nc1ccc(-c2ccc(C(=O)[C@@H]3CCC[C@H]3C(=O)O)cc2)cc1"
Result block: 444

Query block: Dear colleague, I am looking for the recorded AUC of viability dose-response curve of the following compound: CC1Cc2ccccc2N1NC(=O)c1ccc(Cl)c([S+](N)(=O)[O-])c1 (stereo unspecified)
Result block: 473

Query block: Dear colleague, I am looking for the recorded AUC of viability dose-response curve of the following compound: "c1coc(CNc2ncnc3nc[nH]c23)c1"
Result block: 464

Query block: Dear colleague, I am looking for the recorded AUC of viability dose-response curve of the following compound: "CCOc1ccccc1N/N=C1/C(=O)N(c2nc(-c3ccccc3)cs2)N=C1C"
Result block: 467

Query block: Dear colleague, I am looking for the recorded AUC of viability dose-response curve of the following compound: "CCOc1cc(C(=O)Nc2ccc(Cl)c(-c3nc4ccccc4[nH]3)c2)cc(OCC)c1OCC"
Result block: 418

Query block: Dear colleague, I am looking for the recorded AUC of viability dose-response curve of the following compound: "OC1=C(Cl)C=C(N\C2=C(\C(=O)NC2=O)C3=C(C=CC=C3)[N+]([O-])=O)C=C1"
Result block: 456

Query block: Dear colleague, I am looking for the recorded AUC of viability dose-response curve of the following compound: "CC1(C)[C@@H](O)CC[C@@]2(C)[C@H]1CC[C@]3(C)[C@@H]2C(=O)\C=C/4[C@@H]5C[C@](C)(CC[C@]5(C)CC[C@@]34C)C(O)=O"
Result block: 468

Query block: Dear colleague, I am looking for the recorded AUC of viability dose-response curve of the following compound: "c1ccc2c(CCNc3ccc(Nc4ccncc4)cc3)c[nH]c2c1"
Result block: 429

Query block: Dear colleague, I am looking for the recorded AUC of viability dose-response curve of the following compound: "CC(C)(Sc1cc(C(C)(C)C)c(O)c(C(C)(C)C)c1)Sc1cc(C(C)(C)C)c(O)c(C(C)(C)C)c1"
Result block: 414

Query block: Dear colleague, I am looking for the recorded AUC of viability dose-response curve of the following compound: C=C1CCC2[C@](C)(CO)C(O)CC[C@]2(C)C1C/C=C1/C(=O)OCC1O (stereo partly specified)
Result block: 457

Query block: Dear colleague, I am looking for the recorded AUC of viability dose-response curve of the following compound: "Cc1ccc(C(=O)Nc2ccc([S+](=O)([O-])O)c3cc([S+](=O)([O-])O)cc([S+](=O)([O-])O)c23)cc1NC(=O)c1cccc(NC(=O)Nc2cccc(C(=O)Nc3cc(C(=O)Nc4ccc([S+](=O)([O-])O)c5cc([S+](=O)([O-])O)cc([S+](=O)([O-])O)c45)ccc3C)c2)c1"
Result block: 392

Query block: Dear colleague, I am looking for the recorded AUC of viability dose-response curve of the following compound: "COc1ccc(/C=C/C(=O)Nc2ccccc2C(=O)O)cc1OC"
Result block: 458
